Value source: paper PMC9574860

- system: Parkinson's disease protein 7 (PARK7/DJ1) (human, UniProt Q99497)
- Sequence (Q99497 whole entry, looked up): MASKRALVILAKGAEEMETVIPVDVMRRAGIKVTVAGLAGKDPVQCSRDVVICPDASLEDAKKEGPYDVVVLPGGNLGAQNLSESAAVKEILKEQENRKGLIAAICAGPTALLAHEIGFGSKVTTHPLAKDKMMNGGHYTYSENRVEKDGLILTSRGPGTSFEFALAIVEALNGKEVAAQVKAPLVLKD
- methodNotes: primary screen, percent inhibition; higher = more effect of the substance
- testSettings: 100 µM
In all, about 7,900 compounds went through this assay and about 400 (5.1%) showed an effect of 50% or more. Many of the other results were omitted from the sample, so strong results are more common in it than they were.
attributeMeasured: Inhibition % (%)
Respond with the bare value in %.

Reported Inhibition % ( N#Cc1ccncc1C(=O)O ) = 12.3

Record summary for C=CC(=O)N1CCC2(CCSCC2)CC1 : reported Inhibition % = 5.26

Record summary for COCCNC(=O)C(C#N)=Cc1c(Cl)cccc1Cl : reported Inhibition % = 2.17

Field Inhibition % (entry N#CC(=Cc1ccco1)C(=O)Nc1nnc(C(F)F)s1 ) reads 4.49

For this compound ( C=CC(=O)Nc1nc2c(s1)COCC2 ), measured Inhibition % is 6.4

Others:
Sure, the documented Inhibition % for C=CC(=O)NC1CCCN(c2ccc(F)cc2C)C1 (stereo not drawn) is 6.65

# Inhibition % (compound: C=CC(=O)N1c2cc(OC)ccc2NC(=O)C1C (stereo not drawn) ) is 9.84

Inhibition % recorded for this compound, COc1ccc(C(=O)NNC(=O)CCl)cc1 , is -3.11

Record Cc1ccoc1C(=O)Nc1cccc(S(=O)(=O)F)c1 . Reported Inhibition %: 7.02

The compound listed as O=C(NCC(F)(F)F)n1ccnc1 has a reported Inhibition % of 6.27

For this compound ( O=C(O)CNC(=O)C12CC3CC(CC(Cl)(C3)C1)C2 ), measured Inhibition % is 7.56

Documented Inhibition % of N#Cc1nccnc1SC1CCCC1 : 6.92

CNC(=O)n1ccnc1 has a reported Inhibition % of 75.1

---

Overview of reported Inhibition % across a group of molecules:
- system: Parkinson's disease protein 7 (PARK7/DJ1) (human)
- methodNotes: primary screen, percent inhibition; higher = more effect of the substance
- testSettings: 100 µM
The campaign covered roughly 7,900 compounds. About 400 (5.1%) showed an effect of 50% or more. The list comes from a sample in which strong results are over-represented; it also holds close analogues and randomly drawn compounds.
The reply should consist of the numeric value with the unit placed after it.

Please fill in: Inhibition % reported for CCn1cc(NS(=O)(=O)C=Cc2ccccc2)cn1 = 81.4%

// recorded Inhibition % for O=C(CCl)Nc1cc(C(F)(F)F)ccc1-n1cncn1 : 32.5%

---

- system: Parkinson's disease protein 7 (PARK7/DJ1) (human, UniProt Q99497)
- methodNotes: primary screen, percent inhibition; read as competition with a fluorescent probe by fluorescence polarization; higher = more effect of the substance
- testSettings: 100 µM
About 400 (5.1%) of roughly 7,900 compounds showed an effect of 50% or more. The list comes from a sample in which strong results are over-represented; it also holds close analogues and randomly drawn compounds.
# key: entry, value: Inhibition %
# unit: % | format: bare number

Example compounds with recorded Inhibition %:
According to the records, this compound O=C(CCl)c1ccc2c(c1)CCN(C(=O)C(F)(F)F)C2 displays Inhibition % of 2.68

Given item N#Cc1cnc(OCC(F)(F)F)cn1 , the value recorded as its Inhibition % is 4.9

Query O=C(CCl)Nc1ccc2c(c1)OC(F)(F)O2 yields Inhibition % of 37.9

Sample Cc1ccc(B2OC(C)(C)C(C)(C)O2)c(C#N)c1 ; Inhibition % observed: -0.714

For this compound ( C=CC(=O)NC(c1ccco1)C(C)(C)C (stereo not shown) ), measured Inhibition % is 7.05

Further cases:
Inhibition % measured on Cc1cc(NC(=O)CCl)n(-c2ccccc2)n1 = 29.6
